method.summary: Oral bioavailability in dog at 1 mg/kg
Assay type: ADME, organism-based, Canis lupus familiaris
test.context: in vivo
endpoint.name: bioavailability (%)
Numbers only, in %.

Sample Cn1c(N(Cc2ccc(C(=O)Nc3nnn[nH]3)cc2)[C@H]2CC[C@H](C(C)(C)C)CC2)nc2cc(C(F)(F)F)ccc21 ; bioavailability observed: 27

---

method.summary: Volume of distribution at steady state in mouse at 1 mg/kg, iv and 2 mg/kg, po
Type: ADME, organism-based
test.context: in vivo, read-out: Vdss
endpoint.name: Vd (L/kg)
Answers are plain numbers, in L/kg.

Cn1c(N(Cc2ccc(C(=O)Nc3nnn[nH]3)cc2)[C@H]2CC[C@H](C(C)(C)C)CC2)nc2cc(OC3CCCC3)ccc21 ... 0.5

Proceeding to the next compound to report its Vd.
The recorded Vd for entry Cn1c(N(Cc2ccc(C(=O)Nc3nnn[nH]3)cc2)[C@H]2CC[C@H](C(C)(C)C)CC2)nc2cc(C(F)(F)F)ccc21 equals 0.33

---

measurement.target: Glucagon receptor (Homo sapiens, UniProt P47871)
Sequence (P47871 whole entry): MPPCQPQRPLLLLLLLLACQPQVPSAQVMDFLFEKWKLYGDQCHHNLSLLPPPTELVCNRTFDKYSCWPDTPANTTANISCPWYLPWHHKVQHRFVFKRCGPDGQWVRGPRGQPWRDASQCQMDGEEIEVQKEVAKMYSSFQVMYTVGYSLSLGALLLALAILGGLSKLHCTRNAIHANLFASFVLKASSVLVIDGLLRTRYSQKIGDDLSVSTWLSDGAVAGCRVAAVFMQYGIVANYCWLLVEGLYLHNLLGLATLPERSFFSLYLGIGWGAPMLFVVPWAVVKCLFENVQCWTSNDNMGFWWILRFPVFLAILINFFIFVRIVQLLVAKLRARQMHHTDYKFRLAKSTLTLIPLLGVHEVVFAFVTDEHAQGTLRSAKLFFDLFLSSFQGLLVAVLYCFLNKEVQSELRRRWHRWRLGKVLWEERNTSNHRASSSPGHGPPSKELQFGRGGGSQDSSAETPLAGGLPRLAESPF
method.summary: Antagonist activity against human GCGR expressed in CHO cells assessed as glucagon-induced cAMP accumulation
Type: functional, cell-based
endpoint.name: IC50 (nM)
Answers are plain numbers, in nM.

Reference set, count: 2
COc1ccc2nc(N(Cc3ccc(C(=O)Nc4nnn[nH]4)cc3)[C@H]3CC[C@H](C(C)(C)C)CC3)n(C)c2c1 ... 213
COc1ccc2c(c1)nc(N(Cc1ccc(C(=O)Nc3nnn[nH]3)cc1)[C@H]1CC[C@H](C(C)(C)C)CC1)n2C ... 38

Note to self: IC50 recorded for Cn1c(N(Cc2ccc(C(=O)Nc3nnn[nH]3)cc2)[C@H]2CC[C@H](C(C)(C)C)CC2)nc2cc(C(F)(F)F)ccc21 was 62

---

measurement.target: Cytochrome P450 3A4 (Homo sapiens, UniProt P08684)
Sequence (P08684 whole entry): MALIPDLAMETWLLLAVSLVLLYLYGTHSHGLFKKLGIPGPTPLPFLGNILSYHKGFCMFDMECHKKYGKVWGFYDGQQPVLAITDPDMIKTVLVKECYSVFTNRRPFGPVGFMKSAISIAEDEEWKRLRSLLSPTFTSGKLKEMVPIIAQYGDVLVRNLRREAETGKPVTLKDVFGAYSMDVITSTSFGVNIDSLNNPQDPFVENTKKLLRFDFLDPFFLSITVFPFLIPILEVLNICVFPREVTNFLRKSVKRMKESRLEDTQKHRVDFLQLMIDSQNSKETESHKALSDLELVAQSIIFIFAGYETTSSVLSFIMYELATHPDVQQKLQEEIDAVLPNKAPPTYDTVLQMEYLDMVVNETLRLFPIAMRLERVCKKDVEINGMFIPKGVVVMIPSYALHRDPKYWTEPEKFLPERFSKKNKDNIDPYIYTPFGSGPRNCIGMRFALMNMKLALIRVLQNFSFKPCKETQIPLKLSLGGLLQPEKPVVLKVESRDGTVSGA
endpoint.name: IC50

# IC50 (molecule: Cn1c(N(Cc2ccc(C(=O)Nc3nnn[nH]3)cc2)[C@H]2CC[C@H](C(C)(C)C)CC2)nc2cc(C(F)(F)F)ccc21 ) is > 10 µM

---

I'd appreciate it if you could supply bioavailability values for the items below.
method.summary: Oral bioavailability in rat at 2 mg/kg
Assay type: ADME, organism-based
test.context: in vivo
Answers are plain numbers, in %.

Hey, quick one: what's bioavailability for each of these?
1. Cn1c(N(Cc2ccc(C(=O)Nc3nnn[nH]3)cc2)[C@H]2CC[C@H](C(C)(C)C)CC2)nc2cc(C(F)(F)F)ccc21
2. Cn1c(N(Cc2ccc(C(=O)Nc3nnn[nH]3)cc2)[C@H]2CC[C@H](C(C)(C)C)CC2)nc2cc(OC3CCCC3)ccc21

[5, 5]

---

As an illustration, consider measured IC50 for compounds on Glucagon-like peptide 1 receptor, Homo sapiens (UniProt P43220).
Sequence (P43220 whole entry, looked up): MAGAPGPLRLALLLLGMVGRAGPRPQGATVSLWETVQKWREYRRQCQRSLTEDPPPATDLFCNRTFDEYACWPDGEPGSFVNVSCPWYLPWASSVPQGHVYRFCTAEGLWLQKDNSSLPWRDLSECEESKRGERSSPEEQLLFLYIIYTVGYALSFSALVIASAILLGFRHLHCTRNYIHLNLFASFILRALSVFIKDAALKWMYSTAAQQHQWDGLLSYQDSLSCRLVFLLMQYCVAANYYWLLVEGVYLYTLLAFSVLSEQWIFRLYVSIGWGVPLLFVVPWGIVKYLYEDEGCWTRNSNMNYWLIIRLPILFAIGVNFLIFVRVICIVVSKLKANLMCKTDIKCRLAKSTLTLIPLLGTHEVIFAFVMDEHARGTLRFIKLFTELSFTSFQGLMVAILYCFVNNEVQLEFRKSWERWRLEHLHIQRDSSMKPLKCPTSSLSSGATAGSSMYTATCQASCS
Numbers only, in µM.

Some compounds with known IC50 results, for comparison:
CCCOc1ccc2nc(N(Cc3ccc(C(=O)Nc4nnn[nH]4)cc3)[C@H]3CC[C@H](C(C)(C)C)CC3)n(C)c2c1 ... 5
Cn1c(N(Cc2ccc(C(=O)Nc3nnn[nH]3)cc2)[C@H]2CC[C@H](C(C)(C)C)CC2)nc2cc(OC3CCCC3)ccc21 ... 5
Cn1c(N(Cc2ccc(C(=O)Nc3nnn[nH]3)cc2)[C@H]2CC[C@H](C(C)(C)C)CC2)nc2cc(C(F)(F)F)ccc21 ... 6.8

IC50 for COc1ccc2c(c1)nc(N(Cc1ccc(C(=O)Nc3nnn[nH]3)cc1)[C@H]1CC[C@H](C(C)(C)C)CC1)n2C is 5.9
